Target: UniProt P53985
Test: MCT1-mediated lactate transport in BT20 breast cancer cells
Type: cell-based
Details: native MCT1, 10 mM L-lactate, Table 3
Description: 10 μL of a 30 mM DMSO stock of BCECF-AM ester (Life Technologies) is added and the cells are incubated at 37° C. for 5 min. […] 2.5 μL BCECF-loaded cells, along with either 10 μL DMSO or 100×compound in DMSO, are added to 937.5 μL of Tyrode's Solution in a quartz 1.0 mL cuvette (PerkinElmer, B0631116). […] After establishing baseline BCECF fluorescence (around 10-20 s), 50 μL of 1 M sodium L-lactate (Sigma-Aldrich) is added to the cuvette (final concentration: 50 mM) and rapidly mixed. […]
property: IC50 (nM)

1. CC(C)(OCc1cc(-c2cccc(OCC3CCOCC3)c2)n(Cc2ccccc2Cl)n1)C(=O)O = 12000
2. CCOc1cccc(-c2cc(COC(C)(C)C(=O)O)nn2Cc2ccccc2Cl)c1 = 15000

###

assay: Metabolic stability in mouse liver microsomes; format: in vitro ADME; conditions: mouse liver microsomes 0.5 mg/mL, 2 μM compound; remaining percentage of parent at 60 min
property: Mouse microsome % 60 min (%)

Answered cases to consult:
1) COc1cccc(-c2c(C)c(COC(C)(C)C(=O)O)nn2Cc2ccccc2Cl)c1 = 95
2) COc1cccc(-c2cc(COC(C)(C)C(=O)O)nn2-c2ccccc2Cl)c1 = 100

a. COc1csc(-c2cc(COC(C)(C)C(=O)O)nn2Cc2ccccc2Cl)c1
b. CC(C)Oc1cccc(-c2cc(COC(C)(C)C(=O)O)nn2Cc2ccccc2Cl)c1
Ask | # return whichever of a and b has the smaller Mouse microsome % 60 min Output the label that corresponds to your choice.
Reply | b
(b: 31%, a: 92%)

###

target: MCT1 (Homo sapiens (Human), UniProt P53985); experiment: MCT1-mediated lactate transport in BT20 breast cancer cells; type: cell-based; details: native MCT1, 10 mM L-lactate, Table 2
Sequence (P53985 whole entry): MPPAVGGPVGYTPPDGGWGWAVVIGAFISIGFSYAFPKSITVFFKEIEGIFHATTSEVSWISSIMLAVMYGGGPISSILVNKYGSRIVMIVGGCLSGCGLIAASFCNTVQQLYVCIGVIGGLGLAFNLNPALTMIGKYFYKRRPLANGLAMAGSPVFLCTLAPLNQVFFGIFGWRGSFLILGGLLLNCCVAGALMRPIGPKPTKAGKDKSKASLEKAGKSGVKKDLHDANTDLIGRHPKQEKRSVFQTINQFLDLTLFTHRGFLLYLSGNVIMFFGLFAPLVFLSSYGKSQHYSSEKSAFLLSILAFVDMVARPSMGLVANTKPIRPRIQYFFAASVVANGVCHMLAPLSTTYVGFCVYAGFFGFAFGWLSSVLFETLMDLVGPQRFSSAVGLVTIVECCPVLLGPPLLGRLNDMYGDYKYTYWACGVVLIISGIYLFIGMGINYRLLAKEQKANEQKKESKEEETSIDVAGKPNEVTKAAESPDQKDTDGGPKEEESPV
Sequence (P35613 140-385 partner): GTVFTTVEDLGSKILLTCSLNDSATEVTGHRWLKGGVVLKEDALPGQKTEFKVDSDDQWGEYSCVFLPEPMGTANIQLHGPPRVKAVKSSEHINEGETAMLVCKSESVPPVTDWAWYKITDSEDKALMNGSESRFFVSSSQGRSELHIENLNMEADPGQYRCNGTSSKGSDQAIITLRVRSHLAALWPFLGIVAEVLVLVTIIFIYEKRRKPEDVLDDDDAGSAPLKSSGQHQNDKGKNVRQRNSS
property: IC50 (nM)

1) Cc1cccc(-c2cc(COC(C)(C)C(=O)O)nn2Cc2ccccc2Cl)c1 [Example 11] = 29000
2) CC(C)(OCc1cc(-c2ccc(F)cc2)n(Cc2ccccc2Cl)n1)C(=O)O [Example 4] = 33000
3) CC(C)(OCc1cc(-c2ccc(Cl)cc2)n(Cc2ccccc2F)n1)C(=O)O [Example 19] = 57000

P. CC(C)(OCc1cc(-c2cccc(C(F)(F)F)c2)n(Cc2ccccc2Cl)n1)C(=O)O [Example 13]
Q. CC(C)(OCc1cc(-c2ccccc2Cl)n(Cc2ccccc2Cl)n1)C(=O)O [Example 9]
Ask | Hey, which is lower on measured IC50, P or Q ? Reply with the label of the item you choose.
Reply | P
(P: 17000 nM, Q: 39000 nM)

A. CC(C)(OCc1cc(-c2ccc(Cl)cc2)n(Cc2ccccc2Cl)n1)C(N)=O [Example 20]
B. CC(C)(OCc1cc(-c2nccs2)n(Cc2ccccc2Cl)n1)C(=O)O [Example 18]
Ask | Between A and B , whose measured IC50 reads higher? Kindly state the label of the option you pick.
Reply | B
(B: 45000 nM, A: 7900 nM)

1. CC(C)(OCc1cc(C2CCCC2)n(Cc2ccccc2Cl)n1)C(=O)O [Example 16]
2. O=C(O)C1(OCc2cc(-c3ccc(Cl)cc3)n(Cc3ccccc3Cl)n2)CC1 [Example 17]
3. CC(C)(OCc1cc(-c2ccc(Cl)cc2)n(Cc2ccc(Cl)cc2)n1)C(=O)O [Example 2]
4. CC(C)(OCc1cc(-c2ccccc2)n(Cc2cccc(Cl)c2)n1)C(=O)O [Example 1]
5. CC(C)(OCc1cc(-c2cccc(Cl)c2)n(Cc2ccccc2Cl)n1)C(=O)O [Example 10]
Ask | Sort ascending by IC50. The reply should contain the labels ordered as requested.
Reply | 2, 5, 3, 4, 1

A. CC(C)(OCc1cc(-c2ccc(Cl)cc2)n(Cc2ccccc2)n1)C(=O)O [Example 7]
B. CC(C)(OCc1cc(-c2ccc(Cl)cc2)n(Cc2ccc(Cl)cc2Cl)n1)C(=O)O [Example 5]
C. CC(C)(OCc1cc(-c2ccc(Cl)cc2)n(Cc2ccncc2)n1)C(=O)O [Example 21]
Ask | Sequence the entries by IC50, beginning with the highest number. Form field (ranking): labels in requested order.
Reply | C, A, B
